Test system: Neuregulin-1 EGF-like domain
test: binders of neuregulin-1 EGF-like domain, primary screen, biochemical, small-molecule microarray, 635 nm fluorescence (AID 1081);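 also: binding of the protein to compounds printed on small-molecule microarray slides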
recordedConditions: small-molecule microarray binding, higher = more signal
Assign yes whenever composite z-score does not fall below 0.8; assign no whenever it does.

compound	answerLabel
[N-]=[N+]=NCc1ccccc1[C@H]1OC(c2ccc(OCCCO)cc2)=N[C@@]1(Cc1ccccc1)C(=O)N1CCOCC1	yes
C=CCC(OC(C)=O)[C@@H]1[C@@H](N(Cc2cc3ccccc3o2)C(=O)c2cccc3ccccc23)c2cc(OCCCO)ccc2N1C(=O)c1ccc2ccccc2c1 (some centres undefined)	no
N[C@@H](Cc1ccccc1)Cn1cc(C2(O)CCCCC2)nn1	no
C=CCC(OC(C)=O)[C@@H]1[C@@H](N(Cc2ccc(-c3cccc(C(F)(F)F)c3)o2)C(=O)Cc2ccc(F)cc2)c2cc(OCCCO)ccc2N1C(=O)c1ccc2ccccc2n1 (some centres undefined)	no
COc1ccccc1CN1C(=O)c2ccccc2[C@](Cc2ccccc2I)(C(=O)NCCCN(C)C)[C@@H]1c1ccc(CO)cc1	yes
CC(C)c1ccc(NN2C(C(O)C(C)C)C=CC3C(=O)N(c4ccccc4)C(=O)C32)cc1 (centres undefined)	yes
C=CCNC(=O)[C@@H]1[C@H]2C(=O)O[C@H](c3ccccc3)[C@H](c3ccccc3)N2[C@H](c2ccc(O)cc2)[C@@]12C(=O)Nc1ccc(C#CC3(O)CCCCCC3)cc12	yes
CCOC(=O)C1=CC[C@@H](c2ccc(F)cc2)N(S(=O)(=O)c2ccc(C)cc2)[C@H]1c1ccc([N+](=O)[O-])cc1	yes
COc1ccc(CCNC(=O)[C@@]2(Sc3ccc(C)cc3)CC(=O)N(Cc3cc(C(F)(F)F)cc(C(F)(F)F)c3)[C@@H]2c2ccc(CO)cc2)cc1	no
COCCOC(=O)N1C(=O)[C@@]2(c3ccccc31)[C@H](C(=O)N1CCCCCCC1)[C@H]1C(=O)O[C@H](c3ccccc3)[C@H](c3ccccc3)N1[C@@H]2c1ccc(O)cc1	yes
CCCC=C(CCC)[C@@H](NC(=O)c1ccco1)c1ccc(C(=O)OC)cc1	yes
O=C1OCCC=C[C@H]2OC34C=CCN(CCN5CCOCC5)C(=O)[C@H]3N(CCCO)C(=O)[C@@H]4C12 (some centres undefined)	no
CC(C)C[C@@H]1NC(=O)[C@@H]2C[C@H](C(=O)O)[C@H](c3ccc(O)cc3)N2C1=O	yes
CC(=O)c1ccc(C(O)C2C=CC3C(=O)N(C)C(=O)C3N2NC(=O)OC(C)(C)C)cc1 (centres undefined)	yes
[N-]=[N+]=NCc1ccccc1C[C@]1(C(=O)N2CCOCC2)N=C(c2ccc(OCCCO)cc2)O[C@H]1c1ccccc1CN=[N+]=[N-]	yes
CC(C)CNC(=O)[C@@H]1c2ccccc2C(=O)N(Cc2ccccc2)[C@H]1c1ccc(CO)cc1	no
NCCCC[C@@H]1NC(=O)[C@H]2C[C@@H](C(=O)O)[C@@H](c3cccc(OCCO)c3)N2C1=O	yes
O=C1c2ccccc2[C@](Cc2ccccc2I)(C(=O)O)[C@H](c2ccc(CO)cc2)N1Cc1ccccc1	yes
CCCCC(O)C1C=CC2C(=O)NC(=O)C2N1Nc1ccccn1 (centres undefined)	no
C=CC[C@]1(C(=O)NCCCOC)N=C(c2ccc(OCCCO)cc2)O[C@H]1c1ccccc1	yes
CCCCC(O)C1C=CC2C(=O)NC(=O)C2N1Nc1ccc(Cl)cc1Cl (centres undefined)	yes
COC(=O)[C@@H]1N=C(c2ccc(OCCCO)cc2)O[C@@H]1c1ccccc1CN=[N+]=[N-]	yes
COCCOC(=O)N1C(=O)[C@@]2(c3cc(C#CCNC(N)=O)ccc31)[C@H](C(=O)NC[C@H](O)c1ccccc1)[C@H]1C(=O)O[C@H](c3ccccc3)[C@H](c3ccccc3)N1[C@@H]2c1ccc(OCCO)cc1	yes
CCCCN1CC=CC23O[C@@H]4/C=C\CCC(C)OC(=O)C4[C@H]2C(=O)N(C(C)CO)[C@@H]3C1=O (some centres undefined)	no
C[C@@H](OCc1ccccc1)C1NC(=O)[C@@]23C(=O)N[C@@H](Cc4ccccc4)C2[C@H](C)[C@@]2(C)O[C@H]2C3/C=C/C/C=C\CNC(=O)[C@H](Cc2ccccc2)NC1=O (some centres undefined)	no
COCCOC(=O)N1C(=O)[C@@]2(c3ccccc31)[C@H](C(N)=O)[C@H]1C(=O)O[C@H](c3ccccc3)[C@H](c3ccccc3)N1[C@@H]2c1ccc(OCCO)cc1	yes
COC(=O)[C@@]1(Cc2ccc(OC)cc2)[C@@H]2[C@@H](CC(=O)[C@H]2CC(=O)C(=O)N2CCCC2)CN1C(=O)c1ccccc1	yes
C[C@H]1C2[C@H](Cc3ccccc3)NC(=O)[C@]23C(=O)NCC(=O)N2CCC[C@H]2C(=O)NC/C=C\C/C=C/C3[C@@H]2O[C@]12C (some centres undefined)	no

Origin of the recorded values: PubChem BioAssay
